Experiment: Hydrodynamic diameter and colloidal stability of aggregates by dynamic light scattering
Type: physicochemical
Settings: 5 μM in PBS; sd^2/mean size^2
For each entry below, report its PDI value.
API note: the answer field is a bare number with no unit suffix.

IN: // Input: COc1ccc2[nH]cc(CCNC(=O)CNC(=O)CCC(=O)O[C@@H]3CC(C)=C(/C=C/C(C)=C/C=C/C(C)=C/C=C/C=C(C)/C=C/C=C(C)/C=C/C(=O)[C@]4(C)C[C@@H](OC(=O)CCC(=O)NCC(=O)NCCc5c[nH]c6ccc(OC)cc56)CC4(C)C)C(C)(C)C3)c2c1 [Compound 17, Capsanthin-dimelatonin conjugate] . Output its PDI only.
OUT: 0.1273

IN: // Input: COc1ccc2[nH]cc(CCNC(=O)CNC(=O)CCC(=O)O[C@@H]3CC(C)=C(/C=C/C(C)=C/C=C/C(C)=C/C=C/C=C(C)/C=C/C=C(C)/C=C/C4=C(C)CCCC4(C)C)C(C)(C)C3)c2c1 [Compound 15, Cryptoxanthin-melatonin conjugate] . Output its PDI only.
OUT: 0.0992

IN: // Input: COc1ccc2[nH]cc(CCNC(=O)CNC(=O)CCC(=O)O[C@@H]3CC(C)=C(/C=C/C(C)=C/C=C/C(C)=C/C=C/C=C(C)/C=C/C=C(C)/C=C/C4C(C)=C[C@@H](OC(=O)CCC(=O)NCC(=O)NCCc5c[nH]c6ccc(OC)cc56)CC4(C)C)C(C)(C)C3)c2c1 (stereo partly shown) [Compound 16, Lutein-bismelatonin conjugate] . Output its PDI only.
OUT: 0.0264

IN: // Input: COc1ccc2[nH]cc(CCNC(=O)CNC(=O)CCC(=O)OC/C(C)=C/C=C/C(C)=C/C=C/C=C(C)/C=C/C=C(C)/C=C/C3=C(C)CCCC3(C)C)c2c1 [Compound 18, 8′-Apo-β-carotenol-melatonin conjugate] . Output its PDI only.
OUT: 0.1788
